# maps each entry to its inhibition
Molecular target: UniProt O13428
Test: In vitro inhibition of glucan synthase obtained from Candida albicans at a concentration of 10 ug/mL.
Numbered stars: 1 amine (or outer) side, 2 acyl side, 3 side chain; on linkers, the order of the positions; unused ones are H or OH. Bridge positions count the residues as written; N and C are the ends. Square brackets hold non-standard residues; d marks the D form. Peptide text beside a SMILES is read from it. * marks the point of attachment. Orn(4R-OH,5R-OH) = O=C([C@H](C[C@@H](O)[C@@H](O)N[*:3])N[*:1])[*:2]; hTyr(3S-OH,4S-OH) = N[C@H](C(=O)O)[C@H](O)[C@@H](O)c1ccc(O)cc1; Pro(3S-OH,4S-Me) = C[C@H]1CN[C@H](C(=O)O)[C@H]1O; X5 = O=C(c1ccc(C#Cc2ccc(C#Cc3ccccc3)cc2)cc1)*; X18 = O=C(c1ccc(C#Cc2ccc(-c3ccccc3)cc2)cc1)*; X10 = CCCCc1ccc(COc2ccc(C(=O)*)cc2)cc1; Hyp = O=C(O)[C@@H]1C[C@@H](O)CN1

{"molecule": "CCCCc1ccc(COc2ccc(C(=O)N[C@H]3C[C@@H](O)[C@@H](O)NC(=O)[C@@H]4[C@@H](O)[C@@H](C)CN4C(=O)[C@H]([C@@H](C)O)NC(=O)[C@H]([C@H](O)[C@@H](O)c4ccc(O)cc4)NC(=O)[C@@H]4C[C@@H](O)CN4C(=O)[C@H]([C@@H](C)O)NC3=O)cc2)cc1 (X10-[Orn(4R-OH,5R-OH)]T[Hyp][hTyr(3S-OH,4S-OH)]T[Pro(3S-OH,4S-Me)]; lactam 1-C)", "inhibition [%]": 68.9}
{"molecule": "C[C@@H](O)[C@@H]1NC(=O)[C@H]([C@H](O)[C@@H](O)c2ccc(O)cc2)NC(=O)[C@@H]2C[C@@H](O)CN2C(=O)[C@H]([C@@H](C)O)NC(=O)[C@@H](NC(=O)c2ccc(C#Cc3ccc(C#Cc4ccccc4)cc3)cc2)C[C@@H](O)[C@@H](O)NC(=O)[C@@H]2[C@@H](O)[C@@H](C)CN2C1=O (X5-[Orn(4R-OH,5R-OH)]T[Hyp][hTyr(3S-OH,4S-OH)]T[Pro(3S-OH,4S-Me)]; lactam 1-C)", "inhibition [%]": 81.3}
{"molecule": "C[C@@H](O)[C@@H]1NC(=O)[C@H]([C@H](O)[C@@H](O)c2ccc(O)cc2)NC(=O)[C@@H]2C[C@@H](O)CN2C(=O)[C@H]([C@@H](C)O)NC(=O)[C@@H](NC(=O)c2ccc(C#Cc3ccc(-c4ccccc4)cc3)cc2)C[C@@H](O)[C@@H](O)NC(=O)[C@@H]2[C@@H](O)[C@@H](C)CN2C1=O (X18-[Orn(4R-OH,5R-OH)]T[Hyp][hTyr(3S-OH,4S-OH)]T[Pro(3S-OH,4S-Me)]; lactam 1-C)", "inhibition [%]": 78.2}

* * *

Target: Beta-1,3-glucan synthase (Candida albicans) (UniProt O13428)
Sequence (O13428 as listed by the source): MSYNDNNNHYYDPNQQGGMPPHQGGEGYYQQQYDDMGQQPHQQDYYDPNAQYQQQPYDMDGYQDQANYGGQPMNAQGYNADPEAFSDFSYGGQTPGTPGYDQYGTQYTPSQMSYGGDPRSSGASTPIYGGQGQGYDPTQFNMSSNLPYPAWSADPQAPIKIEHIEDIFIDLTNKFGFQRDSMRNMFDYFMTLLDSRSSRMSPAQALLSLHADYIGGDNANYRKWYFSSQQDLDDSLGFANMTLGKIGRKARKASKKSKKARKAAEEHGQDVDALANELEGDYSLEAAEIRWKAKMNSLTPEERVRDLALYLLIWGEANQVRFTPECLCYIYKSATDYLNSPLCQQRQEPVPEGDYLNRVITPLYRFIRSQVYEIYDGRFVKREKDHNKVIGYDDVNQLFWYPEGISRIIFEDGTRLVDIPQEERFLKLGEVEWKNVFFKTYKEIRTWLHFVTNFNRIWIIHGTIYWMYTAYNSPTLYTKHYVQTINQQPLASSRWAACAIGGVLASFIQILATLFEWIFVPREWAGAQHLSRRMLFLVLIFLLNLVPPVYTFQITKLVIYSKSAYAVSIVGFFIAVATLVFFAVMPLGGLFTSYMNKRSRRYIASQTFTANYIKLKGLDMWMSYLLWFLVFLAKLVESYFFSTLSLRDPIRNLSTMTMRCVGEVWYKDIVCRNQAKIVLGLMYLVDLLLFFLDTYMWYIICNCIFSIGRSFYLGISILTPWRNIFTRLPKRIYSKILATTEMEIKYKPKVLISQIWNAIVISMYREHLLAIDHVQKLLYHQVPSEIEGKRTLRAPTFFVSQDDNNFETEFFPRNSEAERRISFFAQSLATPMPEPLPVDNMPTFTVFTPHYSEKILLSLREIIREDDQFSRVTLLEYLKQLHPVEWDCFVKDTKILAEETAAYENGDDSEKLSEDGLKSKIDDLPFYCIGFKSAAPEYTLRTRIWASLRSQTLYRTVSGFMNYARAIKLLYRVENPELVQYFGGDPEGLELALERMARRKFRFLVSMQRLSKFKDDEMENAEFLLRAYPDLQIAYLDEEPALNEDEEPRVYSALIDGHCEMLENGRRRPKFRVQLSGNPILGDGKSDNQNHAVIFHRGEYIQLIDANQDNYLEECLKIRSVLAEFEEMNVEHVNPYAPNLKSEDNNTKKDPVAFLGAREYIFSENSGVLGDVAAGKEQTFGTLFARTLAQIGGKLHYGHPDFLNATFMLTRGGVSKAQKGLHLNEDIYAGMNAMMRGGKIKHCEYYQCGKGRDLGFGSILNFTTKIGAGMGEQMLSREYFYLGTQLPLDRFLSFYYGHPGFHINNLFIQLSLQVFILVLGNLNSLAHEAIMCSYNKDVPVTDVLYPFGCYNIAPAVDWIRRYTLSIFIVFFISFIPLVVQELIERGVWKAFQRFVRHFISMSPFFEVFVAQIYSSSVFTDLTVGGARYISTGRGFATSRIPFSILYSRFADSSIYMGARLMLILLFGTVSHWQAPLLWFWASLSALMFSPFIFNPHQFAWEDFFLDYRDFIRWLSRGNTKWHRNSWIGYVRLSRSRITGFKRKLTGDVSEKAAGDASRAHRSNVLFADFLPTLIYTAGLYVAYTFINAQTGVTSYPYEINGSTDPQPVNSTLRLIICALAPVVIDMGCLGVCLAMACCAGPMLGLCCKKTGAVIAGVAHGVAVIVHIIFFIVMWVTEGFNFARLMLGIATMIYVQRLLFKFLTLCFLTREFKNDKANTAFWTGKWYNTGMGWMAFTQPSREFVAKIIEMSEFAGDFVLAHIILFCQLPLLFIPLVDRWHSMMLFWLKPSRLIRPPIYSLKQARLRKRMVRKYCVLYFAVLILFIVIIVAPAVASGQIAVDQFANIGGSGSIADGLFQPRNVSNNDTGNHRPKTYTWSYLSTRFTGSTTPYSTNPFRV
Assay: In vitro inhibition of glucan synthase obtained from Candida albicans at a concentration of 10 ug/mL.
Numbered stars: 1 amine (or outer) side, 2 acyl side, 3 side chain; on linkers, the order of the positions; unused ones are H or OH. Bridge positions count the residues as written; N and C are the ends. Square brackets hold non-standard residues; d marks the D form. Peptide text beside a SMILES is read from it. * marks the point of attachment. Orn(4R-OH,5R-OH) = O=C([C@H](C[C@@H](O)[C@@H](O)N[*:3])N[*:1])[*:2]; hTyr(3S-OH,4S-OH) = N[C@H](C(=O)O)[C@H](O)[C@@H](O)c1ccc(O)cc1; X17 = CCCCOCCOc1ccc(C#Cc2ccc(-c3ccc(C(=O)*)cc3)cc2)cc1; Pro(3S-OH,4S-Me) = C[C@H]1CN[C@H](C(=O)O)[C@H]1O; X9 = CCCCCCCCCCOc1ccc2cc(C(=O)*)ccc2c1; Hyp = O=C(O)[C@@H]1C[C@@H](O)CN1; X29 = CCCCCOCCOc1ccc(C(=O)*)cc1

{"compound": "CCCCOCCOc1ccc(C#Cc2ccc(-c3ccc(C(=O)N[C@H]4C[C@@H](O)[C@@H](O)NC(=O)[C@@H]5[C@@H](O)[C@@H](C)CN5C(=O)[C@H]([C@@H](C)O)NC(=O)[C@H]([C@H](O)[C@@H](O)c5ccc(O)cc5)NC(=O)[C@@H]5C[C@@H](O)CN5C(=O)[C@H]([C@@H](C)O)NC4=O)cc3)cc2)cc1 (X17-[Orn(4R-OH,5R-OH)]T[Hyp][hTyr(3S-OH,4S-OH)]T[Pro(3S-OH,4S-Me)]; lactam 1-C)", "assay.system": "Beta-1,3-glucan synthase (Candida albicans) (UniProt O13428)", "inhibition, %": 81.9}
{"compound": "CCCCCOCCOc1ccc(C(=O)N[C@H]2C[C@@H](O)[C@@H](O)NC(=O)[C@@H]3[C@@H](O)[C@@H](C)CN3C(=O)[C@H]([C@@H](C)O)NC(=O)[C@H]([C@H](O)[C@@H](O)c3ccc(O)cc3)NC(=O)[C@@H]3C[C@@H](O)CN3C(=O)[C@H]([C@@H](C)O)NC2=O)cc1 (X29-[Orn(4R-OH,5R-OH)]T[Hyp][hTyr(3S-OH,4S-OH)]T[Pro(3S-OH,4S-Me)]; lactam 1-C)", "assay.system": "Beta-1,3-glucan synthase (Candida albicans) (UniProt O13428)", "inhibition, %": 17.1}
{"compound": "CCCCCCCCCCOc1ccc2cc(C(=O)N[C@H]3C[C@@H](O)[C@@H](O)NC(=O)[C@@H]4[C@@H](O)[C@@H](C)CN4C(=O)[C@H]([C@@H](C)O)NC(=O)[C@H]([C@H](O)[C@@H](O)c4ccc(O)cc4)NC(=O)[C@@H]4C[C@@H](O)CN4C(=O)[C@H]([C@@H](C)O)NC3=O)ccc2c1 (X9-[Orn(4R-OH,5R-OH)]T[Hyp][hTyr(3S-OH,4S-OH)]T[Pro(3S-OH,4S-Me)]; lactam 1-C)", "assay.system": "Beta-1,3-glucan synthase (Candida albicans) (UniProt O13428)", "inhibition, %": 82.2}

Data provenance is ChEMBL document CHEMBL1128519.
